Source listed as patent US20250064941A1.

Molecular target: human Siglec-2/CD22 protein (Homo sapiens)
Assay: SPR binding affinity to human CD22
Settings: steady-state analysis
Below, each entry is listed with its recorded Kd.

Look over these answered cases.
COMPOUND | RESULT
C#CCOCCCCCCO[C@]1(C(=O)O)C[C@H](O)[C@@H](NC(=O)CO)[C@H]([C@H](O)[C@H](O)CNC(=O)Cc2ccc(-c3ccc(O)cc3)cc2)O1 | < 1000 nM
C#CCCCCCCO[C@]1(C(=O)O)C[C@H](O)[C@@H](NC(=O)CO)[C@H]([C@H](O)[C@H](O)CNC(=O)Cc2ccc(Cl)cc2)O1 | < 1000 nM
C#CCOCCCCCCO[C@]1(C(=O)O)C[C@H](O)[C@@H](NC(=O)Cc2ccccc2)[C@H]([C@H](O)[C@H](O)CNC(=O)Cc2ccc(Cl)cc2)O1 | 1000 to 10000 nM

Tell me Kd reported for `CC(=O)NCCOCCOCCOCCOCc1cn(CCCCCCO[C@]2(C(=O)O)C[C@H](O)[C@@H](NC(=O)CO)[C@H]([C@H](O)[C@H](O)CNC(=O)Cc3ccc(C(F)F)cc3)O2)nn1`
< 1000 nM

Respond only with Kd recorded for `C#CCOc1ccc(-c2cn([C@]3(C(=O)O)C[C@H](O)[C@@H](NC(=O)CO)[C@H]([C@H](O)[C@H](O)CNC(=O)Cc4ccc(-c5ccc(O)cc5)cc4)O3)nn2)cc1`
< 1000 nM

State its Kd for this compound: `C#CCCOc1ccc(CO[C@]2(C(=O)O)C[C@H](O)[C@@H](NC(C)=O)[C@H]([C@H](O)[C@H](O)CNC(=O)c3cccc(Oc4ccccc4)c3)O2)cc1`
< 1000 nM

Identify measured Kd corresponding to C#CCOCCCCCCO[C@]1(C(=O)O)C[C@H](O)[C@@H](NC(=O)C(C)O)[C@H]([C@H](O)[C@H](O)CNC(=O)Cc2ccc(Cl)cc2)O1 (stereo partly drawn)
1000 to 10000 nM

Identify measured Kd corresponding to `C#CCOCCOCCO[C@]1(C(=O)O)C[C@H](O)[C@@H](NC(=O)CO)[C@H]([C@H](O)[C@H](O)CNC(=O)Cn2cc(-c3ccccc3)nn2)O1`
1000 to 10000 nM

For the compound `C#CCCCCCCS[C@]1(C(=O)O)C[C@H](O)[C@@H](NC(=O)CO)[C@H]([C@H](O)[C@H](O)CNC(=O)Cc2cccc(O)c2)O1` , give its reported Kd.
< 1000 nM

====

Target: human Siglec-2/CD22 protein (Homo sapiens)
Construct: purchased Acro Biosystems SI2-H82E3
Assay: SPR binding affinity to human CD22
Conditions: steady-state analysis
The reader will find reported Kd values listed item by item below.

Examples with answers:
MOLECULE | Kd
C#CCOCCOCCNc1c(NCCCCCCO[C@]2(C(=O)O)C[C@H](O)[C@@H](NC(=O)CO)[C@H]([C@H](O)[C@H](O)CNC(=O)c3ccc(C(F)F)cc3)O2)c(=O)c1=O [Compound 231] | < 1 µM
C#CCOCCCCCCO[C@]1(C(=O)O)C[C@H](O)[C@@H](NC(=O)CO)[C@H]([C@H](O)[C@H](O)CNC(=O)Cc2ccc(Cl)c(O)c2)O1 [Compound 128] | < 1 µM
C#CCOCCOCCO[C@]1(C(=O)O)C[C@H](O)[C@@H](NC(=O)CO)[C@H]([C@H](O)[C@H](O)CNC(=O)Cc2ccccc2O)O1 [Compound 151] | 1 to 10 µM
O=C(Cc1ccc(-c2ccc(O)cc2)cc1)NC[C@@H](O)[C@@H](O)[C@@H]1O[C@](C(=O)O)(n2cc(-c3ccccc3O)nn2)C[C@H](O)[C@H]1NC(=O)CO [Compound 54] | < 1 µM

Now look at this entry.
Tell me its Kd given C#CCOCCCCCCO[C@]1(C(=O)O)C[C@H](O)[C@@H](NC(=O)CO)[C@H]([C@H](O)[C@H](O)CNC(=O)Cc2ccc(C3CC3)cc2)O1 [Compound 161] as the entry.
< 1 µM

====

Target: human Siglec-2/CD22 protein (Homo sapiens)
Sequence (P20273 20-847): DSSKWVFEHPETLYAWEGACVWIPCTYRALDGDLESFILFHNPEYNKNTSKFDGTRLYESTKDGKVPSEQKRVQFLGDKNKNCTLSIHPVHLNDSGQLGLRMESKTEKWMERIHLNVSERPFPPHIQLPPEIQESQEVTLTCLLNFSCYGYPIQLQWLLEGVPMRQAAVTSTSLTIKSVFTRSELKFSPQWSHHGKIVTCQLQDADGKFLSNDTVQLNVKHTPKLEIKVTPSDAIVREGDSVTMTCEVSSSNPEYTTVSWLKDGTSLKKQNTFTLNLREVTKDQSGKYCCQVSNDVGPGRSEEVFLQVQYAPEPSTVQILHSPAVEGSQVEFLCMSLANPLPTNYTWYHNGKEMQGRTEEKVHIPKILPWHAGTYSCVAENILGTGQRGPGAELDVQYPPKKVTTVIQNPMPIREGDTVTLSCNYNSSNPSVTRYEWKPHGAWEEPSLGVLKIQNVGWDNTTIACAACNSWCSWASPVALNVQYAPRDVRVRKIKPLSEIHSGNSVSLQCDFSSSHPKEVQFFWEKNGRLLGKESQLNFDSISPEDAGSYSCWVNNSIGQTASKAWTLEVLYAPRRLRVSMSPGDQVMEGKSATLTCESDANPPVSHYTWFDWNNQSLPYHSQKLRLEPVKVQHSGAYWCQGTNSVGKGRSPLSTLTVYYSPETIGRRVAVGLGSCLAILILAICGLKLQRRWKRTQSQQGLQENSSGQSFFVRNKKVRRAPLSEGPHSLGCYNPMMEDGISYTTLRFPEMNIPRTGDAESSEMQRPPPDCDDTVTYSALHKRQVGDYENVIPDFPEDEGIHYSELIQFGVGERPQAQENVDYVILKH
Experiment: SPR binding affinity to human CD22
Details: steady-state analysis
Listed here are compounds together with their documented Kd.

MOLECULAR STRING | Kd
C#CCOCCCCCCO[C@]1(C(=O)O)C[C@H](O)[C@@H](NC(=O)CO)[C@H]([C@H](O)[C@H](O)CNC(=O)Cc2ccc3[nH]ccc3c2)O1 | < 1000 nM
C#CCOCCOCCO[C@]1(C(=O)O)C[C@H](O)[C@@H](NC(=O)CO)[C@H]([C@H](O)[C@H](O)CNC(=O)c2ccccc2)O1 | > 10000 nM
C#CCCOc1ccc(CO[C@]2(C(=O)O)C[C@H](O)[C@@H](NC(N)=O)[C@H]([C@H](O)[C@H](O)CNC(=O)Cc3ccc(Cl)cc3)O2)cc1 | < 1000 nM
C#CCOCCOCCO[C@]1(C(=O)O)C[C@H](O)[C@@H](NC(=O)CO)[C@H]([C@H](O)[C@H](O)CNC(=O)Cc2ccc(-c3cccc(O)c3)cc2)O1 | < 1000 nM

Okay, now this compound:
Please look at `C#CCOCCOCCO[C@@]1(C(=O)O)O[C@@H]([C@H](O)[C@H](O)CNC(=O)Cc2ccc(-c3ccccc3)cc2)[C@H](NC(=O)CO)[C@@H](NC(=O)CC)[C@@H]1O` and tell me its recorded Kd on human Siglec-2/CD22 protein (Homo sapiens).
1000 to 10000 nM

====

Target: mouse Siglec-2-Fc-Avi (CD22) (Mus musculus)
Sequence (P35329 22-708 limits assumed): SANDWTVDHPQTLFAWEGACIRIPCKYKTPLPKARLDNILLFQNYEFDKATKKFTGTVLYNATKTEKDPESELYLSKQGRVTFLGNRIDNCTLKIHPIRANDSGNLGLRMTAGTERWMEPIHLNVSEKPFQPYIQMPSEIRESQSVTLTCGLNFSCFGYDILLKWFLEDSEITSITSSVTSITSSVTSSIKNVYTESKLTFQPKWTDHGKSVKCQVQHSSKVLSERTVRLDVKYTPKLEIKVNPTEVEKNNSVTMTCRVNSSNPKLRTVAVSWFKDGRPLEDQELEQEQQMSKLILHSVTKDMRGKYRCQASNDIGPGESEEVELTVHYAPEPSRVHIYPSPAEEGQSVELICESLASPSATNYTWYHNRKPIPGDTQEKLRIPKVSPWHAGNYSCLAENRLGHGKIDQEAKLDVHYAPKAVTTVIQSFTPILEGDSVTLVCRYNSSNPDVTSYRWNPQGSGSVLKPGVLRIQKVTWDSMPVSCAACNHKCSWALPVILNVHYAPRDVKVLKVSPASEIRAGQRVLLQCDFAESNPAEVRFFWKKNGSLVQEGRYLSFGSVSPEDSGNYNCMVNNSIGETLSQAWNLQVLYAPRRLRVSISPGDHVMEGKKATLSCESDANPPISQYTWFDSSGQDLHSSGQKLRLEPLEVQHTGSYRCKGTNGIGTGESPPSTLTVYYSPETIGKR
In this section we review reported Kd values for a set of compounds.

Below, 5 compounds whose answers are already recorded.
COMPOUND | Kd
C#CCCOc1ccc(CO[C@]2(C(=O)O)C[C@H](O)[C@@H](NC(=O)CO)[C@H]([C@H](O)[C@H](O)CNC(=O)Cc3cccc(-c4ccccc4O)c3)O2)cc1 | 1 to 10 µM
C#CCCOc1ccc(CS[C@]2(C(=O)O)C[C@H](O)[C@@H](NC(=O)CO)[C@H]([C@H](O)[C@H](O)CNC(=O)Cc3cccc(Cl)c3)O2)cc1 | 1 to 10 µM
C#CCOCCOCCNc1c(NCCCCCCO[C@]2(C(=O)O)C[C@H](O)[C@@H](NC(=O)CO)[C@H]([C@H](O)[C@H](O)CNC(=O)c3cccc(Oc4ccccc4)c3)O2)c(=O)c1=O | 1 to 10 µM
C#CCOCCOCCO[C@@]1(C(=O)O)O[C@@H]([C@H](O)[C@H](O)CNC(=O)Cc2ccc(-c3ccccc3)cc2)[C@H](NC(=O)CO)[C@@H](NC(=O)c2cccc(OC)c2)[C@@H]1O | 1 to 10 µM
C#CCOCCOCCO[C@]1(C(=O)O)C[C@H](O)[C@@H](NC(=O)CO)[C@H]([C@H](O)[C@H](O)CNC(=O)Cc2ccc(C)cc2)O1 | 1 to 10 µM

Check mouse Siglec-2-Fc-Avi (CD22) (Mus musculus) data and give Kd for `C#CCOCCOCCO[C@]1(C(=O)O)C[C@H](O)[C@@H](NS(=O)(=O)NC)[C@H]([C@H](O)[C@H](O)CNC(=O)Cc2ccc(-c3ccc(O)cc3)cc2)O1` .
> 10 µM

For mouse Siglec-2-Fc-Avi (CD22) (Mus musculus), give the measured Kd of the entry C#CCCOc1ccc(CO[C@]2(C(=O)O)C[C@H](O)[C@@H](NC(=O)CO)[C@H]([C@H](O)[C@H](O)CNC(=O)C(OC)(c3ccccc3)C(F)(F)F)O2)cc1 (some centres unmarked)
1 to 10 µM
